System: NCI-H23 lung
Test: NCI-60 one-dose screen, 48 h (100 = growth as untreated, 0 = no growth, -100 = all killed)
Details: 10 µM unless noted
Compounds without any hit were thinned out: in the full panel of roughly 83,000, 20% have a hit.
# maps each entry to its growth
A number alone suffices; assume %.

Example compounds with recorded growth:
CCOc1nc(-c2ccccc2)cc2c(O)c(C(=O)N/N=C/c3ccc(O)cc3O)[nH]c(=O)c12
3.35
COCCNc1ccc2c3c(cccc13)C(=O)N(CCN(C)C)C2=O
25.6

Given item Cn1ccnc1C(=O)/C=C/c1ccccc1 , the value recorded as its growth is 33.1

====

System: HOP-92 NSCLC
Experiment: NCI-60 one-dose screen, 48 h (100 = growth as untreated, 0 = no growth, -100 = all killed)
Details: 10 µM unless noted
About 83,000 compounds went through this panel and 20% of them were active in at least one assay; those are over-represented in the sample as a whole.
Label rule, in plain words: growth of 60% and up is YES, under 60% is NO.

The following molecules have reported results that may help.
COc1cc(-c2nc3ccccc3[nH]2)ccc1OCc1nnc(-c2ccc(CC(C)C)cc2)o1
YES
CCCn1c(=O)[nH]c(N)c([C@H]2c3ccccc3Oc3[nH]c(=O)n(CCC)c(=O)c32)c1=O
YES
Nc1nc2ncc(CCNc3ccc(C(=O)O)cc3)nc2c(=O)[nH]1
YES
C=C1C(=O)O[C@H]2[C@H]1CC/C(COC(=O)c1cc3cc(OC)ccc3[nH]1)=C\CC[C@@]1(C)O[C@@H]21
NO
NC(N)=N/N=C(/c1ccccc1)c1ccc(F)cc1
NO
O=C(Nc1ccc(Cl)cc1)c1cc2cc(F)ccc2cc1O
NO

Evaluate COc1cccc2c1C(=O)c1c(O)c3c(c(O)c1C2=O)C[C@](O)(C(=O)CO)C[C@H]3O[C@@H]1C[C@@H](NC(=O)CCCCCN(C)C2(c3ccc(F)cc3)CC3CCC2C3)[C@H](O)[C@@H](C)O1 (stereo not given in full) : growth at minimum 60%?
NO

# bool: growth of CC(=O)O[C@H]1CC[C@]2(C)[C@H]3CC=C4[C@@H]5CC(C)(C)CC[C@]5(C(=O)NCCNCCNCCN)CC[C@@]4(C)[C@]3(C)CC[C@H]2C1(C)C >= 60%
YES

Textbook exercise: given the entry O=C(/C=C/c1cccc(Cl)c1)c1ccc(O)c(CN2CCN(c3cc4c(cc3F)c(=O)c(C(=O)O)cn4C3CC3)CC2)c1 , state whether its growth is greater than or equal to 60%.
NO

====

Recorded growth values for a group of compounds are listed next.
Test system: SNB-19 CNS
Assay: NCI-60 one-dose screen, 48 h (100 = growth as untreated, 0 = no growth, -100 = all killed)
Conditions: 10 µM unless noted
This is part of a sample that, as a whole, favours compounds with a hit. Of some 83,000 tested, about 20% had one in any assay.
Write the number in % without appending the unit.

Example entries and their recorded answers appear below.
COc1cc(-c2ccc3c(c2)NC(=O)/C3=C\c2ccc[nH]2)ccc1O
34.8
COc1ccc(CCNc2nc3c(c(=O)n(Cc4ccc(Br)cc4)c(=O)n3C)n2C)cc1OC
94.5
O=C1c2cccc3cccc(c23)C(=O)N1CCCCCN1CCN(CCCCCOc2ccc(-c3nc4ccc(N5CCOCC5)cc4[nH]3)cc2)CC1
129
CCOC(=O)n1cc(-c2nonc2-c2cn(C)c3ncccc23)c2ccccc21
89.3

Now let's try a different one.
Form field growth, entry OC(COc1cccc2ccccc12)CN1CCN(c2ccccc2Cl)CC1 (stereo not given) : 83.4

====

# growth values compiled below
Test system: M14 melanoma
Test: NCI-60 one-dose screen, 48 h (100 = growth as untreated, 0 = no growth, -100 = all killed)
Conditions: 10 µM unless noted
Compounds without any hit were thinned out: in the full panel of roughly 83,000, 20% have a hit. The source made the active and inactive calls. Rule for the calls: active = growth percent below 10; inactive = the rest.

As a guide, the following entries are already answered.
Clc1ccc2nc3nc4ccc[nH]c4cc3c2c1
106% (inactive)
NC1=C(Cl)C(=O)c2ccc(S(N)(=O)=O)cc2C1=O
-89.6% (active)
N#Cc1c(N)n(CCNC(=O)c2ccccc2)c2nc3ccccc3nc12
112% (inactive)

# ---- query compound ----
M14 melanoma data for C[n+]1ccccc1/C=C/c1ccc2cccc(O)c2n1 ; its growth: 103% (inactive)

====

Tested on: HS 578T breast
Test: NCI-60 one-dose screen, 48 h
Settings: 10 µM unless noted
About 83,000 compounds went through this panel and 20% of them were active in at least one assay; those are over-represented in the sample as a whole. Activity calls are given as the source filed them. How the source made its calls: active means growth percent below 10; inactive means the rest.
Permitted responses: label 1 = active, label 0 = inactive

O=C1c2cc3c(cc2-c2c1c1cc(F)c(F)cc1c(=O)n2CCCn1ccnc1)OCO3
label 0
O=C(Cc1ccccc1Nc1c(Cl)cccc1Cl)NN1C(=O)/C(=C/c2ccc(Br)cc2)SC1=S
label 0
COc1ccc(SC2c3ccc(C)cc3Oc3nc(N)c(C#N)c(N)c32)cc1 (stereo not drawn)
label 1

Field: outcome | Entry: CC(C)CSc1nc(N)nc2c1ncn2C1OC(CO)C(O)C1O (stereo not drawn)
label 0

Identify the outcome logged in this assay for the compound shown: CN1CCN(c2ccc3nc(-c4ccc(OCCCCN5CCN(CCCCN6C(=O)c7cccc8cccc(c78)C6=O)CC5)cc4)[nH]c3c2)CC1
label 0

For this compound, state the assay outcome: COc1cc2nnc3c4cccnc4[nH]c3c2cc1OC
label 0

Name the outcome recorded for O=C1OC(c2ccccc2)C(O)=C1c1ccccc1 (stereo not drawn) in the assay.
label 0

Hello, I am checking results. What call was entered for C#Cc1cccc(NC(=O)c2ccccc2NC(=O)CCl)c1 ?
label 0

====

growth for assorted compounds
Test system: SK-MEL-2 melanoma
Test: NCI-60 one-dose screen, 48 h (100 = growth as untreated, 0 = no growth, -100 = all killed)
Conditions: 10 µM unless noted
Experimental: Growth inhibition of the SK-MEL-2 human tumor cell line is measured as a screen for anti-cancer activity. Cells are grown in 96 well plates and exposed to the test compound for 48 hours. Compounds are tested at a single concentration, which is 10^-5 M for most compounds. The reported endpoint is percent growth (GI% or GIPRCNT), where numbers from 0 - 100% represent growth inhibition, and numbers from -100% - 0 represent cell death. For example, a value of 40 represents 60% growth inhibition. […]
The panel holds about 83,000 compounds, 20% with a hit somewhere; the sample as a whole holds those more often.
Value expressed in %; do not type the unit.

Check out these entries, answers already filled in.
Cc1ccc(/C=C2\SC(=S)N(CC(=O)NCCCN3CCOCC3)C2=O)cc1
107
CC(=O)Nc1ccc(S(=O)(=O)Nc2cccc(-c3nc(-c4ccc(NC(=O)c5cccnc5)cc4Cl)no3)c2)cc1
35.9

Now look at this one.
Lab book: growth of N#Cc1c(-c2ccc(Cl)cc2)nc(NN=Cc2ccco2)nc1N1CCOCC1 noted as 82.3

====

Test system: SK-MEL-28 melanoma
Test: NCI-60 one-dose screen, 48 h
Settings: 10 µM unless noted
Method: Growth inhibition of the SK-MEL-28 human tumor cell line is measured as a screen for anti-cancer activity. Cells are grown in 96 well plates and exposed to the test compound for 48 hours. Compounds are tested at a single concentration, which is 10^-5 M for most compounds. The reported endpoint is percent growth (GI% or GIPRCNT), where numbers from 0 - 100% represent growth inhibition, and numbers from -100% - 0 represent cell death. For example, a value of 40 represents 60% growth inhibition. […]
About 83,000 compounds went through this panel and 20% of them were active in at least one assay; those are over-represented in the sample as a whole. The source made the active and inactive calls. Rule for the calls: active = growth percent below 10; inactive = the rest.
Hi there, use one of these labels in your reply, thanks! active, inactive

CC1=CC(C)(C)Nc2ccc(Cc3ccc4c(c3)C(C)=CC(C)(C)N4)cc21
inactive
CC(=O)OCCC/C(=C/c1cc2ccccc2c2ccccc12)[N+](=O)[O-]
active
Cc1cc(C)nc(SC2=C(Nc3cccc(Cl)c3C)C(=O)N(Cc3ccccc3)C2=O)n1
inactive
O=C1c2ccccc2C(=O)c2c1ccc1[nH]c(-c3cccs3)nc21
inactive
Cc1nn(-c2ccc(F)cc2)c2ncnc(Nc3ccc(NC(=O)Nc4ccc(Cl)c(C(F)(F)F)c4)cc3)c12
inactive
CC(C)CSc1nc(N)nc2c1ncn2C1OC(CO)C(O)C1O (configuration not stated)
inactive
Cn1cc(-c2nonc2-c2cn(C)c3ccc(F)cc23)c2cc(F)ccc21
inactive
NC(N)=N/N=C(/c1ccccc1)c1ccc(F)cc1
inactive
O=C(O)c1ccc(N=CC(=O)c2ccc(-c3ccccc3)cc2)cc1
inactive
CCCOc1cc2ccccc2cc1C(=O)Nc1nc(NC)c2c(ccc3nccc32)[nH]1
active

Hi team, can someone confirm the assay call for O=c1nc2oc3ccc4ccccc4c3cc-2s1 ?
inactive

Name the outcome recorded for CCOC(=O)n1cc(-c2nonc2-c2cn(C)c3ncccc23)c2cc(F)ccc21 in the assay.
inactive
